biological target: Kappa-type opioid receptor (Cavia porcellus)
Sequence (P41144 whole entry): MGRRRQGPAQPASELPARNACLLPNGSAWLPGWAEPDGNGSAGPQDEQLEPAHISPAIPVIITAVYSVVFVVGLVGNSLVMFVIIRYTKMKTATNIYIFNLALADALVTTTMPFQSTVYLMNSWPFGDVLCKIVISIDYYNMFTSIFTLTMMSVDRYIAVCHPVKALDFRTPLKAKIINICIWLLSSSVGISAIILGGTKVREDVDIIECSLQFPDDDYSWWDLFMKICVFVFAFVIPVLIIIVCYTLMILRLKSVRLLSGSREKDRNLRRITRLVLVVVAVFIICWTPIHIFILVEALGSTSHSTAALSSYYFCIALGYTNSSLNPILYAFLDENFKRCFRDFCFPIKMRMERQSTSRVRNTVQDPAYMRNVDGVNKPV
Result type: pKi
Numbers only, as −log10 of the molar value.

## Input Any idea what its pKi is? The compound is CN1CC[C@]23c4c5ccc(O)c4O[C@H]2C(=O)C2(Cc4ccccc4C2)C[C@@]3(O)[C@H]1C5
## Output 6.23
